Quick record: pKd, IR α 105–118 peptide of the human insulin receptor (Homo sapiens, UniProt P06213).
pKd: −log10 of the molar value.
property: pKd

# compound, property, reported_value
data = [
    ("CC(=O)[C@H]1CC[C@H]2[C@@H]3CCC4=CC(=O)CC[C@]4(C)[C@H]3CC[C@]12C", "pKd", "< 3.30"),
    ("C[C@]12CC[C@@H]3c4ccc(O)cc4CC[C@H]3[C@@H]1C[C@@H](O)[C@@H]2O", "pKd", "< 3.30"),
    ("C[C@]12CC[C@@H]3c4ccc(O)cc4CC[C@H]3[C@@H]1CC[C@@H]2O [17β-Estradiol (E2), 17β-Estradiol]", "pKd", 3.55),
    ("C[C@]12CC[C@@H]3c4ccc(O)cc4CC[C@H]3[C@@H]1CCC2=O", "pKd", "< 3.30"),
    ("CC(C)CCC[C@@H](C)[C@H]1CC[C@H]2[C@@H]3CC=C4C[C@@H](O)CC[C@]4(C)[C@H]3CC[C@]12C", "pKd", "< 3.30"),
    ("C[C@]12CCC(=O)C=C1CC[C@@H]1[C@@H]2CC[C@]2(C)C(=O)CC[C@@H]12", "pKd", "< 3.30"),
]
